# target_or_test_system: E. coli DdlB enzyme (D-alanine:D-alanine ligase) (Escherichia coli)
# Construct: made in house; host or cells: E. coli
# protocol_notes: biochemical
# condition_details: residual activity; tested concentration 2.3 mM; read-out: DdlB RA
value_kind: remaining activity at 2300 µM (%)

[[record]]
compound = "CC1CC(C)(C)Nc2c(C(=O)O)cccc21 (stereo not shown) [Compound Y021-0767]"
target_or_test_system = "E. coli DdlB enzyme (D-alanine:D-alanine ligase) (Escherichia coli)"
reported_result = 97

[[record]]
compound = "CC(C)C(=O)N1CC(n2cc(C(=O)N(C)C)nn2)C1 [Compound S724-0111]"
target_or_test_system = "E. coli DdlB enzyme (D-alanine:D-alanine ligase) (Escherichia coli)"
reported_result = 97

[[record]]
compound = "Cn1nnc(-c2ccc(C(=O)O)c(N)c2)n1 [Compound 8019-8673]"
target_or_test_system = "E. coli DdlB enzyme (D-alanine:D-alanine ligase) (Escherichia coli)"
reported_result = 115

[[record]]
compound = "O=S(=O)(c1ccccc1)N1CCN2CCCC2C1 (stereo not shown) [Compound Y206-5298]"
target_or_test_system = "E. coli DdlB enzyme (D-alanine:D-alanine ligase) (Escherichia coli)"
reported_result = 92

[[record]]
compound = "Cc1c(Br)c(C(=O)O)nn1C [Compound Y501-6296]"
target_or_test_system = "E. coli DdlB enzyme (D-alanine:D-alanine ligase) (Escherichia coli)"
reported_result = 107

[[record]]
compound = "N#Cc1c2c([nH]c(=O)c1C(=O)O)CCCC2 [Compound 8020-6318]"
target_or_test_system = "E. coli DdlB enzyme (D-alanine:D-alanine ligase) (Escherichia coli)"
reported_result = 93

[[record]]
compound = "CNC(=O)NCCc1c[nH]c2ncccc12 [Compound M509-0295]"
target_or_test_system = "E. coli DdlB enzyme (D-alanine:D-alanine ligase) (Escherichia coli)"
reported_result = 80

[[record]]
compound = "CC1=CC(C)(C)Nc2c(C(=O)O)cccc21 [Compound Y021-0768]"
target_or_test_system = "E. coli DdlB enzyme (D-alanine:D-alanine ligase) (Escherichia coli)"
reported_result = 105

[[record]]
compound = "Cc1ccc(C(=O)N(C)CC2(C)CCOCC2)cn1 [Compound P970-1095]"
target_or_test_system = "E. coli DdlB enzyme (D-alanine:D-alanine ligase) (Escherichia coli)"
reported_result = 94

[[record]]
compound = "CCc1cccc2c(=O)c(C(=O)O)c[nH]c12 [Compound 2595-1123]"
target_or_test_system = "E. coli DdlB enzyme (D-alanine:D-alanine ligase) (Escherichia coli)"
reported_result = 47

[[record]]
compound = "CC1Cc2ccc(CN)cc2N1C(=O)c1ccccc1 (stereo not shown) [FF01-3167]"
target_or_test_system = "E. coli DdlB enzyme (D-alanine:D-alanine ligase) (Escherichia coli)"
reported_result = 51

[[record]]
compound = "CC1CCCC(NC(=O)c2ccc(Cl)cc2)C1C (stereo not shown) [Compound Y502-2265]"
target_or_test_system = "E. coli DdlB enzyme (D-alanine:D-alanine ligase) (Escherichia coli)"
reported_result = 91

[[record]]
compound = "O=C(O)c1cnc(-c2cccnc2)[nH]c1=O [Compound 8020-5063]"
target_or_test_system = "E. coli DdlB enzyme (D-alanine:D-alanine ligase) (Escherichia coli)"
reported_result = 94

[[record]]
compound = "COc1cccc2c(O)c(C(=O)O)cnc12 [Compound 8019-9999]"
target_or_test_system = "E. coli DdlB enzyme (D-alanine:D-alanine ligase) (Escherichia coli)"
reported_result = 78

[[record]]
compound = "CC(c1c[nH]c2ccccc12)C(O)C(=O)O (stereo not shown) [Compound 8019-4518]"
target_or_test_system = "E. coli DdlB enzyme (D-alanine:D-alanine ligase) (Escherichia coli)"
reported_result = 100

[[record]]
compound = "CCn1cc(Br)c(C(=O)O)n1 [Compound Y501-6363]"
target_or_test_system = "E. coli DdlB enzyme (D-alanine:D-alanine ligase) (Escherichia coli)"
reported_result = 90

[[record]]
compound = "Cc1nnc(-c2ccc(C(=O)O)c(N)c2)o1 [Compound 8020-0732]"
target_or_test_system = "E. coli DdlB enzyme (D-alanine:D-alanine ligase) (Escherichia coli)"
reported_result = 114

[[record]]
compound = "CC1(C)Cc2nc(N)c(C(=O)O)cc2CO1 [Compound 5545-0125]"
target_or_test_system = "E. coli DdlB enzyme (D-alanine:D-alanine ligase) (Escherichia coli)"
reported_result = 95

[[record]]
compound = "COc1cc(OC)c2cc(C(=O)O)[nH]c2c1 [Compound 8017-9359]"
target_or_test_system = "E. coli DdlB enzyme (D-alanine:D-alanine ligase) (Escherichia coli)"
reported_result = 104

[[record]]
compound = "Nc1ncnc2[nH]c(N3CCOCC3)nc12 [Compound 8001-0336]"
target_or_test_system = "E. coli DdlB enzyme (D-alanine:D-alanine ligase) (Escherichia coli)"
reported_result = 98

[[record]]
compound = "N#CCc1nnc(-c2cccc(Cl)c2)[nH]1 [Compound 8018-3009]"
target_or_test_system = "E. coli DdlB enzyme (D-alanine:D-alanine ligase) (Escherichia coli)"
reported_result = 93

[[record]]
compound = "O=S(=O)(c1ncn[nH]1)N1CCOCC1 [Compound 8013-0403]"
target_or_test_system = "E. coli DdlB enzyme (D-alanine:D-alanine ligase) (Escherichia coli)"
reported_result = 95

